Recorded values, source patent US10294217B2.

# ASSAY EXPLANATION: Rodent pharmacokinetic study
# Assay type: in vivo, Male Wistar rats
# CONDITION PARAMETERS: male, Wistar; oral, 3 mg/kg, rat plasma
PROPERTY NAME: half-life (h)
Return type: number; implicit unit h.

Guide cases for half-life, answers given:
- MOLECULE: "Cn1cc(Cn2cc(C(=O)N[C@H]3CCCC[C@@H]3O)c3c(F)ccc(F)c32)cn1"
  UNIT DESCRIPTOR: "h"
  QUANTITATIVE RESULT: 3.3
- MOLECULE: "O=C(N[C@H]1CCCC[C@@H]1O)c1cn(Cc2ccnc(F)c2)c2cccc(F)c12"
  UNIT DESCRIPTOR: "h"
  QUANTITATIVE RESULT: 1.4
- MOLECULE: "O=C(N[C@H]1CCCC[C@@H]1O)c1cn(Cc2cc(F)ncc2F)c2c(F)ccc(F)c12"
  UNIT DESCRIPTOR: "h"
  QUANTITATIVE RESULT: 3
- MOLECULE: "Cl.O=C(N[C@H]1CCNC[C@H]1F)c1cn(Cc2ccnc(F)c2)c2c(F)ccc(F)c12 (single isomer, unassigned; isomer-i)"
  UNIT DESCRIPTOR: "h"
  QUANTITATIVE RESULT: 4.8
- MOLECULE: "O=C(N[C@H]1CCCC[C@@H]1O)c1cn(Cc2ccnc(Cl)c2)c2cccc(F)c12"
  UNIT DESCRIPTOR: "h"
  QUANTITATIVE RESULT: 1.9
- MOLECULE: "O=C(N[C@H]1CCCC[C@@H]1O)c1cn(Cc2ccnc(F)c2)c2c(F)ccc(F)c12"
  UNIT DESCRIPTOR: "h"
  QUANTITATIVE RESULT: 2.3

Now for another entry.
Asked: Tell me half-life reported for Cn1cc(Cn2cc(C(=O)N[C@H]3CCCC[C@@H]3O)c3c(F)cccc32)cn1
Given back: 2.9

====

Entries annotated with measured AUC(0-t)
# ASSAY EXPLANATION: Rodent pharmacokinetic study
# Assay type: in vivo, Male Wistar rats
# CONDITION PARAMETERS: male, Wistar; oral, 3 mg/kg, rat plasma
Return type: number; implicit unit ng·h/mL.

- MOLECULE: "O=C(N[C@H]1CCCC[C@@H]1O)c1cn(Cc2ccnc(F)c2)c2cccc(F)c12"
  AUC(0-t), ng·h/mL: 2260
- MOLECULE: "Cl.O=C(N[C@H]1CCNC[C@H]1F)c1cn(Cc2ccnc(F)c2)c2c(F)ccc(F)c12 (single isomer, unassigned; isomer-i)"
  AUC(0-t), ng·h/mL: 1650

Now for another entry.
Asked: Tell me AUC(0-t) reported for O=C(N[C@H]1CCCC[C@@H]1O)c1cn(Cc2ccnc(Cl)c2)c2cccc(F)c12
Given back: 2160

====

# ASSAY EXPLANATION: Protein binding assay (HT dialysis), human matrices
# Assay type: in vitro ADME
# CONDITION PARAMETERS: pH 7.4, Human plasma, 37° C., Mean ± SEM, n = 3, read-out: Fu Plasma
PROPERTY NAME: fraction unbound at 6 h, 1 μM
Lab note: write the figure by itself, no unit.

Guide cases for fraction unbound at 6 h, 1 μM, answers given:
- MOLECULAR STRING: "O=C(N[C@H]1CCCC[C@@H]1O)c1cn(Cc2ccnc(F)c2)c2cccc(F)c12"
  fraction unbound at 6 h, 1 μM: 0.1
- MOLECULAR STRING: "O=C(N[C@H]1CCCC[C@@H]1O)c1cn(Cc2ccnc(Cl)c2)c2cccc(F)c12"
  fraction unbound at 6 h, 1 μM: 0.04

Asked: Tell me fraction unbound at 6 h, 1 μM reported for O=C(N[C@H]1CCCC[C@@H]1O)c1cn(Cc2ccnc(F)c2)c2c(F)ccc(F)c12
Given back: 0.079

Asked: Tell me fraction unbound at 6 h, 1 μM reported for Cn1cc(Cn2cc(C(=O)N[C@H]3CCCC[C@@H]3O)c3c(F)ccc(F)c32)cn1
Given back: 0.077

====

Entries annotated with measured clearance
# ASSAY EXPLANATION: Rodent pharmacokinetic study
# Format: in vivo, Male Wistar rats
# CONDITION PARAMETERS: male, Wistar, plasma, iv, 1 mg/kg, rat
Return type: number; implicit unit mL/min/kg.

- COMPOUND: "O=C(N[C@H]1CCCC[C@@H]1O)c1cn(Cc2ccnc(Cl)c2)c2cccc(F)c12 [Example 2]"
  PROPERTY NAME: "clearance"
  QUANTITATIVE RESULT: 16.1
- COMPOUND: "O=C(N[C@H]1CCCC[C@@H]1O)c1cn(Cc2cc(F)ncc2F)c2c(F)ccc(F)c12 [Example 12]"
  PROPERTY NAME: "clearance"
  QUANTITATIVE RESULT: 26.7
- COMPOUND: "Cl.O=C(N[C@H]1CCNC[C@H]1F)c1cn(Cc2ccnc(F)c2)c2c(F)ccc(F)c12 (single isomer, unassigned; isomer-i) [Example 22]"
  PROPERTY NAME: "clearance"
  QUANTITATIVE RESULT: 17.1
- COMPOUND: "O=C(N[C@H]1CCCC[C@@H]1O)c1cn(Cc2ccnc(F)c2)c2c(F)ccc(F)c12 [Example 8]"
  PROPERTY NAME: "clearance"
  QUANTITATIVE RESULT: 9

Asked: Tell me clearance reported for O=C(N[C@H]1CCCC[C@@H]1O)c1cn(Cc2ccnc(F)c2)c2cccc(F)c12 [Example 7]
Given back: 14.2

Asked: Tell me clearance reported for Cn1cc(Cn2cc(C(=O)N[C@H]3CCCC[C@@H]3O)c3c(F)ccc(F)c32)cn1 [Example 5]
Given back: 7.1

Asked: Tell me clearance reported for Cn1cc(Cn2cc(C(=O)N[C@H]3CCCC[C@@H]3O)c3c(F)cccc32)cn1 [Example 1]
Given back: 7.3

====

# ASSAY EXPLANATION: Protein binding assay (HT dialysis), human matrices
# Type: in vitro ADME
# CONDITION PARAMETERS: pH 7.4, Human liver microsomes 0.5 mg/mL, Mean ± SEM, n = 3, read-out: Fu Microsomes
Entries annotated with measured fraction unbound at 6 h, 1 μM
Lab note: write the figure by itself, no unit.

Guide cases for fraction unbound at 6 h, 1 μM, answers given:
- MOLECULE: "Cn1cc(Cn2cc(C(=O)N[C@H]3CCCC[C@@H]3O)c3c(F)ccc(F)c32)cn1"
  QUANTITATIVE RESULT: 0.899
- MOLECULE: "O=C(N[C@H]1CCCC[C@@H]1O)c1cn(Cc2ccnc(Cl)c2)c2cccc(F)c12"
  QUANTITATIVE RESULT: 0.459
- MOLECULE: "O=C(N[C@H]1CCCC[C@@H]1O)c1cn(Cc2ccnc(F)c2)c2c(F)ccc(F)c12"
  QUANTITATIVE RESULT: 0.626

Asked: Tell me fraction unbound at 6 h, 1 μM reported for O=C(N[C@H]1CCCC[C@@H]1O)c1cn(Cc2ccnc(Cl)c2)c2c(F)ccc(F)c12
Given back: 0.546

Asked: Tell me fraction unbound at 6 h, 1 μM reported for O=C(N[C@H]1CCCC[C@@H]1O)c1cn(Cc2ccnc(F)c2)c2cccc(F)c12
Given back: 0.7

Asked: Tell me fraction unbound at 6 h, 1 μM reported for Cl.O=C(N[C@H]1CCNC[C@H]1F)c1cn(Cc2ccnc(F)c2)c2c(F)ccc(F)c12 (single isomer, unassigned; isomer-i)
Given back: 0.788

====

# ASSAY EXPLANATION: Rodent brain penetration study
# Assay type: in vivo, Male Wistar rats
# CONDITION PARAMETERS: male, Wistar, rat, oral; 3 mg/kg, p.o.; brain-plasma ratio; read-out: Single dose Rat Brain Penetration (Cb/Cp)
# Description: WO2015044072A1 patent application discloses indole derivatives as M1 PAM compounds. […] This makes these compounds less ideal for the treatment of CNS disorders. Rodent Brain Penetration Study […] Brain penetration was determined in discrete manner in rats. […] The test compounds were suitably preformulated and administered orally at (free base equivalent) 3 mg/kg. […] The concentrations of the test compounds in plasma and brain were determined using LC-MS/MS method. […]
PROPERTY NAME: Kp
Lab note: write the figure by itself, no unit.

- COMPOUND: "Cl.O=C(N[C@H]1CCNC[C@H]1F)c1cn(Cc2ccnc(F)c2)c2c(F)ccc(F)c12 (single isomer, unassigned; isomer-i) [Example 22]"
  PROPERTY NAME: "Kp"
  QUANTITATIVE RESULT: 0.46
- COMPOUND: "O=C(N[C@H]1CCCC[C@@H]1O)c1cn(Cc2ccnc(Cl)c2)c2cccc(F)c12 [Example 2]"
  PROPERTY NAME: "Kp"
  QUANTITATIVE RESULT: 0.95

Now for another entry.
Asked: Tell me Kp reported for O=C(N[C@H]1CCCC[C@@H]1O)c1cn(Cc2ccnc(F)c2)c2cccc(F)c12 [Example 7]
Given back: 0.61
